Overview of recorded koff for various binders
targetOfAssay: T1, Human MuSK (R&D Systems, cat. 10189-MK, histidine tag) (human, UniProt O15146 24-495)
T1 construct: Bought protein; also called human monomeric MuSK-6xhis; not shown: histidine tag (6xhis)
T1 sequence: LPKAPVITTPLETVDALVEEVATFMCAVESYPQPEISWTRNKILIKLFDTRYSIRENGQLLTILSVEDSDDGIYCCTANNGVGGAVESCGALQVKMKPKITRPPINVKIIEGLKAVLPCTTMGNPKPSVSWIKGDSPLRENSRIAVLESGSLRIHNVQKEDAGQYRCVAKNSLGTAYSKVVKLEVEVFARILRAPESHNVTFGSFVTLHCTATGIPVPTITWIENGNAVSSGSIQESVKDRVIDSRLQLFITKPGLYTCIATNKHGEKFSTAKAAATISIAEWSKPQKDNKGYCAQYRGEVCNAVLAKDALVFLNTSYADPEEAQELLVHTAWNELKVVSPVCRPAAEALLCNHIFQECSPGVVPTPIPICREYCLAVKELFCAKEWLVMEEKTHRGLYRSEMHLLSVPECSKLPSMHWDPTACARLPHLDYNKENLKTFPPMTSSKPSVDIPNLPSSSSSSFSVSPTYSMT
testProtocol: SPR (Biacore), antibody captured on anti-hFc chip; average of 0.3125-10 nM; dissociation pH 5.5
The figure you give is taken to be in s⁻¹; do not add the unit.

Field: example entries. Status: answers known.
binder: 3F6c (antibody, human IgG1, kappa, L234A L235A, V domains shown) VH: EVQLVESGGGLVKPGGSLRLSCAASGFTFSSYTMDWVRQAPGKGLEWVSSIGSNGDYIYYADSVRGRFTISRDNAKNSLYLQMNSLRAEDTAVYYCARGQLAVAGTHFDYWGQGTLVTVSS VL: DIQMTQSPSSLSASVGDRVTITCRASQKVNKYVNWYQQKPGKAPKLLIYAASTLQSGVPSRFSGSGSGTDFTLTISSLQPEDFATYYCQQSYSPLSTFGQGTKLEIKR
koff, s⁻¹: 0.0002
//
binder: 3D9b (antibody, human IgG1, kappa, L234A L235A, V domains shown) VH: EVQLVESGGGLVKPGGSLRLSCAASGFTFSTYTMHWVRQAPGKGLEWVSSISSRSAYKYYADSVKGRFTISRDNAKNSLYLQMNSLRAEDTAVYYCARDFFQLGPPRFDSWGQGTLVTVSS VL: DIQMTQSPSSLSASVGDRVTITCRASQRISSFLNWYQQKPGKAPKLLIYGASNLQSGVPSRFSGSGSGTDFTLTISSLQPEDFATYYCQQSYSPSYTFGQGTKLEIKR
koff, s⁻¹: 4e-05
//
binder: 4D3 (antibody, human IgG1, kappa, L234A L235A, V domains shown) VH: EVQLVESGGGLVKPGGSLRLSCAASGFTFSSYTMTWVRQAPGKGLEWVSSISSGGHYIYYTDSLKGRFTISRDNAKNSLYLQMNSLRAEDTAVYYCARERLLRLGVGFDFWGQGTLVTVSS VL: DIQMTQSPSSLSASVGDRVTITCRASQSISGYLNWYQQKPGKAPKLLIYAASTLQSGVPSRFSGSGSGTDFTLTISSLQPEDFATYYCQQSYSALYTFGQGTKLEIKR
koff, s⁻¹: 0.00016

Next binder, please.
Ask | // fetch koff given entry 3D10a (antibody, human IgG1, kappa, L234A L235A, V domains shown) VH: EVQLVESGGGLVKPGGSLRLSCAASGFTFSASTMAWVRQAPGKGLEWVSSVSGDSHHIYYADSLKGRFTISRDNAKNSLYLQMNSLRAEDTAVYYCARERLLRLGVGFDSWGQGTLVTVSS VL: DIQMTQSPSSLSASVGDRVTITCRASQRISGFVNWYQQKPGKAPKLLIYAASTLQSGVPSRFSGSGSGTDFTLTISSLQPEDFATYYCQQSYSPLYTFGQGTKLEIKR
Reply | 9e-05
